System: SN12C renal
Experiment: NCI tumour cell line growth inhibition, 48 h; in the data active = GI50 below about 0.43 µM; inactive = the rest
Labels: true (1) for active, false (0) for inactive

[
  {
    "compound": "CO[C@H]1C[C@](C)(O)Cc2cc3c(c(O)c21)C(=O)c1c(O)cc2c(c1C3=O)O[C@@H]1O[C@@]2(C)[C@H](O)[C@@H](N(C)C)[C@@H]1O",
    "classification": "false (0)"
  },
  {
    "compound": "C=C1C(=O)O[C@H]2[C@H]1CC/C(Cn1cc(-c3ccc(F)cc3)nn1)=C\\CC[C@@]1(C)O[C@@H]21",
    "classification": "false (0)"
  },
  {
    "compound": "NC(N)=NC(N)=NCCCc1ccco1",
    "classification": "false (0)"
  },
  {
    "compound": "CCC1(OC(=O)CN)C(=O)OCc2c1cc1n(c2=O)Cc2cc3ccccc3nc2-1 (centres undefined)",
    "classification": "true (1)"
  },
  {
    "compound": "O=C(c1ccco1)c1c(C(F)(F)F)n([O-])c2cc(C(F)(F)F)ccc2[n+]1=O",
    "classification": "false (0)"
  },
  {
    "compound": "CCCCCCCC(=O)SCC/C=C/[C@@H]1CC(=O)NCc2nc(cs2)C2=N[C@@](C)(CS2)C(=O)N[C@@H](C(C)C)C(=O)N1",
    "classification": "true (1)"
  },
  {
    "compound": "N#C/C(=N\\Nc1ccccc1)C(=O)Nc1cc(-c2ccccc2)nn1-c1ccccc1",
    "classification": "false (0)"
  },
  {
    "compound": "O=C1C(=O)c2ccccc2C(O)=C1CCCc1ccc(C2CCCCC2)cc1",
    "classification": "false (0)"
  },
  {
    "compound": "C=C1C(=O)O[C@H]2[C@H]1CC/C(COC(=O)OC/C1=C/CC[C@@]3(C)O[C@H]3[C@H]3OC(=O)[C@@H](CN(C)C)[C@@H]3CC1)=C\\CC[C@@]1(C)O[C@@H]21",
    "classification": "false (0)"
  },
  {
    "compound": "O=C(/C=C1\\C(=O)N(Cc2ccccc2)c2ccccc21)c1ccc(OCCN2CCCCC2)cc1",
    "classification": "false (0)"
  },
  {
    "compound": "CCCCCCCCCCCCCCCCOP(=O)([O-])OCC[N+](C)(C)C",
    "classification": "false (0)"
  },
  {
    "compound": "CC(C)c1cccc(O)c(=O)c1",
    "classification": "false (0)"
  },
  {
    "compound": "COc1ccc(NC(=O)c2sc3nc(C)c(C(=O)/C=C/c4cccc(OC)c4)cc3c2N)cc1",
    "classification": "false (0)"
  },
  {
    "compound": "C=C1C(=O)O[C@H]2[C@H]1CC/C(COC(=O)CCCc1c[nH]c3ccccc13)=C\\CC[C@@]1(C)O[C@@H]21",
    "classification": "false (0)"
  }
]
